test system: MDA-MB-231; test: Antiproliferative activity against human MDA-MB-231 cells
measurement.label: IC50 (µM)
Give the number; µM is assumed, so skip it.

[[record]]
smiles_string = "COc1ccnc2[nH]cc(-c3ccnc(N)n3)c12"
recorded_value = 0.2


Lab note: next molecule to report on.
Entry Nc1nccc(-c2c[nH]c3ncccc23)n1 ; IC50 = 6

----------
assay: Plasma concentration in BALB/c mouse at 5 mg/kg, ip at 1 hr by LC/MS-MS analysis; format: ADME, organism-based
measurement.label: concentration at 1 h
Remember to quote the unit after the number.

// sample Nc1nccc(-c2c[nH]c3ncc(-c4ccc(F)cc4)cc23)n1 , its concentration at 1 h was 61.6 ng/mL

----------
biological target: CDK9/cyclin T1 (Homo sapiens) (UniProt O60563+P50750); conditions: at 500 nM
Classify as follows. Reported inhibition greater than or equal to 80%: TRUE. Reported inhibition below: FALSE.

A selection of reference data follows.
[[record]]
smiles_string = "Cc1cccc(-c2cnc3[nH]cc(-c4ccnc(N)n4)c3c2)c1"
measured_on = "CDK9/cyclin T1 (Homo sapiens) (UniProt O60563+P50750)"
class = "TRUE"

[[record]]
smiles_string = "COc1ccc2ccccc2c1-c1cnc2[nH]cc(-c3ccnc(N)n3)c2c1"
measured_on = "CDK9/cyclin T1 (Homo sapiens) (UniProt O60563+P50750)"
class = "FALSE"

[[record]]
smiles_string = "Nc1nccc(-c2c[nH]c3ncc(-c4ccsc4)cc23)n1"
measured_on = "CDK9/cyclin T1 (Homo sapiens) (UniProt O60563+P50750)"
class = "TRUE"

[[record]]
smiles_string = "c1cnc2[nH]cc(-c3ccnc(N4CCOCC4)n3)c2c1"
measured_on = "CDK9/cyclin T1 (Homo sapiens) (UniProt O60563+P50750)"
class = "FALSE"

[[record]]
smiles_string = "Nc1nccc(-c2cn(S(=O)(=O)c3ccc(Br)cc3)c3ncccc23)n1"
measured_on = "CDK9/cyclin T1 (Homo sapiens) (UniProt O60563+P50750)"
class = "FALSE"


Check the entry c1cnc2[nH]cc(-c3ccnc(N4CCCCC4)n3)c2c1 : does inhibition equal or exceed 80%?
FALSE

// inclusive: inhibition at least 80%? input: CC(=O)Nc1ccc(S(=O)(=O)n2cc(-c3ccnc(N)n3)c3cccnc32)cc1
FALSE

Has CN1CCN(c2nccc(-c3c[nH]c4ncccc34)n2)CC1 a recorded inhibition greater than or equal to 80%?
FALSE

Answer whether inhibition of c1ccc2c(CCNc3nccc(-c4c[nH]c5ncccc45)n3)c[nH]c2c1 is greater than or equal to 80%.
TRUE

Threshold query (inhibition >= 80%) on COc1ccc(CCNc2nccc(-c3c[nH]c4ncccc34)n2)cc1
TRUE

Answer whether inhibition of Nc1nccc(-c2c[nH]c3ncc(-c4cc5ccccc5s4)cc23)n1 is greater than or equal to 80%.
TRUE

Has Nc1nccc(-c2cn(S(=O)(=O)c3ccc(OC(F)(F)F)cc3)c3ncccc23)n1 a recorded inhibition greater than or equal to 80%?
FALSE

Threshold query (inhibition >= 80%) on Cn1cncc1S(=O)(=O)n1cc(-c2ccnc(N)n2)c2cccnc21
FALSE

Does the compound Nc1nccc(-c2cn(S(=O)(=O)c3ccc(F)cc3)c3ncccc23)n1 have recorded inhibition that is 80% or more?
FALSE

For this compound, is measured inhibition 80% or higher? c1ccc(CCNc2nccc(-c3c[nH]c4ncccc34)n2)cc1
TRUE

State whether the measured inhibition reaches 80%, counting equality as reaching it, for Nc1nccc(-c2c[nH]c3ncc(-c4cc5ccccc5o4)cc23)n1
TRUE

Say whether COc1ccc2[nH]c(-c3cnc4[nH]cc(-c5ccnc(N)n5)c4c3)cc2c1 shows inhibition of 80% or more.
TRUE

Assess whether reported inhibition for Nc1nccc(-c2c[nH]c3ncc(-c4cccc(C(F)(F)F)c4)cc23)n1 sits at 80% or higher.
TRUE

Does inhibition meet or surpass 80% for COc1ccc(CCNc2nccc(-c3c[nH]c4ncccc34)n2)cc1OC ?
TRUE

Determine whether this compound has inhibition no lower than 80%: Nc1nccc(-c2cn(S(=O)(=O)c3ccc4c(c3)OCCO4)c3ncccc23)n1
FALSE

Item CCc1ccccc1-c1cnc2[nH]cc(-c3ccnc(N)n3)c2c1 with inhibition of 80% or above?
FALSE

Check if inhibition >= 80% (inclusive). Item: c1cnc2[nH]cc(-c3ccnc(N4CCCC4)n3)c2c1
FALSE

----------
experiment: AUC (0 to infinity) in BALB/c mouse at 2.5 mg/kg, iv by LC/MS-MS analysis; format: ADME, organism-based; set-up: dose 2.5 mg/kg, time infinity, route intravenous; conditions: in vivo
measurement.label: AUC(0-inf) (ng·h/mL)
Write the value in ng·h/mL as a bare number.

[[record]]
smiles_string = "Nc1nccc(-c2c[nH]c3ncc(-c4ccc(F)cc4)cc23)n1"
measurement_label = "AUC(0-inf)"
recorded_value = 795


Now for the molecule whose AUC(0-inf) we want.
Notebook: Nc1nccc(-c2c[nH]c3ncccc23)n1 , AUC(0-inf) read as 46.9

----------
test: Plasma concentration in BALB/c mouse at 2.5 mg/kg, iv at 2 hrs by LC/MS-MS analysis; format: ADME, organism-based
measurement.label: concentration at 2 h (ng/mL)
// return numeric value only (unit: ng/mL, not printed)

[[record]]
smiles_string = "Nc1nccc(-c2c[nH]c3ncccc23)n1"
recorded_value = 1


Entry under test: Nc1nccc(-c2c[nH]c3ncc(-c4ccc(F)cc4)cc23)n1 . Its concentration at 2 h was 99.6

----------
assay: AUC (0 to t) in BALB/c mouse at 2.5 mg/kg, iv by LC/MS-MS analysis; format: ADME, organism-based; conditions: in vivo
Reported AUC(0-t) values for the following molecules.

[[record]]
smiles_string = "Nc1nccc(-c2c[nH]c3ncccc23)n1"
measurement_label = "AUC(0-t)"
recorded_value = "46.2 ng·h/mL"


Pending molecule:
The measured AUC(0-t) associated with Nc1nccc(-c2c[nH]c3ncc(-c4ccc(F)cc4)cc23)n1 reads 437 ng·h/mL

----------
experiment: Thermodynamic equilibrium solubility of the compound in PBS
Each item that follows carries a reported solubility thermodynamic.
Could you give me the number in µg/mL? Just the number is fine.

Answered examples (3):
[[record]]
smiles_string = "Nc1nccc(-c2c[nH]c3ncccc23)n1"
recorded_value = 89

[[record]]
smiles_string = "Nc1nccc(-c2c[nH]c3ncc(-c4ccoc4)cc23)n1"
recorded_value = 10

[[record]]
smiles_string = "Nc1nccc(-c2c[nH]c3ncc(-c4ccc(Cl)cc4)cc23)n1"
recorded_value = 120


// switching to the query compound
Recorded solubility thermodynamic (compound Nc1nccc(-c2c[nH]c3ncc(-c4cccnc4)cc23)n1 ): 200

----------
A set of molecules tested on CDK9/cyclin T1 (Homo sapiens), with measured pIC50:
The read-out pIC50 is expressed as -log10 of concentration in moles per litre.

[[record]]
smiles_string = "Nc1nccc(-c2c[nH]c3ncc(-c4cc5ccccc5s4)cc23)n1"
recorded_value = 7.09


We now examine a further molecule.
The molecule identified as COc1ccc2ccccc2c1-c1cnc2[nH]cc(-c3ccnc(N)n3)c2c1 registered its pIC50 at 6.20

----------
Values of IC50 reported for CDK9/cyclin T1 (Homo sapiens) appear below.
Give the number; nM is assumed, so skip it.

[[record]]
compound = "COc1ccc2[nH]c(-c3cnc4[nH]cc(-c5ccnc(N)n5)c4c3)cc2c1"
measurement_label = "IC50"
endpoint_unit = "nM"
recorded_value = 342

[[record]]
compound = "c1ccc(CCNc2nccc(-c3c[nH]c4ncccc34)n2)cc1"
measurement_label = "IC50"
endpoint_unit = "nM"
recorded_value = 20

[[record]]
compound = "Nc1nccc(-c2c[nH]c3ncccc23)n1 [MERIOLIN 1]"
measurement_label = "IC50"
endpoint_unit = "nM"
recorded_value = 30

[[record]]
compound = "c1cnc2[nH]cc(-c3ccnc(N4CCCCC4)n3)c2c1"
measurement_label = "IC50"
endpoint_unit = "nM"
recorded_value = 800

[[record]]
compound = "COc1ccc(CCNc2nccc(-c3c[nH]c4ncccc34)n2)cc1OC"
measurement_label = "IC50"
endpoint_unit = "nM"
recorded_value = 59


get_value(item= c1cnc2[nH]cc(-c3ccnc(N4CCCC4)n3)c2c1 , readout=IC50) returns 450

Notebook: CN1CCN(c2nccc(-c3c[nH]c4ncccc34)n2)CC1 , IC50 read as 700

Noted for Nc1nccc(-c2c[nH]c3ncc(-c4cccc5ccccc45)cc23)n1 : its IC50 reads 159

Looking up Nc1nccc(-c2c[nH]c3ncc(-c4cc5ccccc5o4)cc23)n1 , I found its IC50 recorded as 93

// sample CCc1ccccc1-c1cnc2[nH]cc(-c3ccnc(N)n3)c2c1 , its IC50 was 213

Just so you know, measured IC50 for CSc1ccccc1-c1cnc2[nH]cc(-c3ccnc(N)n3)c2c1 came out at 45
